Test: amyloid nucleation score (Sup35N fusion, yeast selection) (log enrichment); library NNK2; higher = more nucleation; inactive = no reads after selection;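 also: zero at mode of non-aggregating sequences after 7 days selection at 30°C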
amyloid nucleation score vs -0.2: at or above is yes (1), below is no (0).

input: Hi team, for "FDILDCDNLELGLYIFILDL" , is the recorded amyloid nucleation score at or above -0.2?
output: no (0)

input: Hi team, for "VWSPYKTV" , is the recorded amyloid nucleation score at or above -0.2?
output: yes (1)

input: Hi team, for "LCDTVTYWVPLC" , is the recorded amyloid nucleation score at or above -0.2?
output: yes (1)

input: Hi team, for "STVFYMNLQGVFRTVSWV" , is the recorded amyloid nucleation score at or above -0.2?
output: yes (1)

input: Hi team, for "TGPIWLCYACAWTNTYTPAE" , is the recorded amyloid nucleation score at or above -0.2?
output: yes (1)

input: Hi team, for "YGGPGRNKGPNSCRSTATSV" , is the recorded amyloid nucleation score at or above -0.2?
output: yes (1)

input: Hi team, for "GLFRWYNMDNYVQI" , is the recorded amyloid nucleation score at or above -0.2?
output: no (0)

input: Hi team, for "GVENKDRVSPNYVG" , is the recorded amyloid nucleation score at or above -0.2?
output: no (0)

input: Hi team, for "HFFTQY" , is the recorded amyloid nucleation score at or above -0.2?
output: yes (1)

input: Hi team, for "TILDIVLIIPAKVVHKEERR" , is the recorded amyloid nucleation score at or above -0.2?
output: yes (1)

input: Hi team, for "HFSFTPFRTWV" , is the recorded amyloid nucleation score at or above -0.2?
output: no (0)

input: Hi team, for "WFCVRVA" , is the recorded amyloid nucleation score at or above -0.2?
output: yes (1)

input: Hi team, for "ILAVKHFRFMVGSKISGGSG" , is the recorded amyloid nucleation score at or above -0.2?
output: yes (1)

input: Hi team, for "SVKIWCFIWEFPCFMLFRAL" , is the recorded amyloid nucleation score at or above -0.2?
output: yes (1)

input: Hi team, for "QPCLHAMV" , is the recorded amyloid nucleation score at or above -0.2?
output: yes (1)

input: Hi team, for "PICHLRGGSISRRSNFIQGC" , is the recorded amyloid nucleation score at or above -0.2?
output: no (0)

input: Hi team, for "VNFNQSRCVDYVGILVIGG" , is the recorded amyloid nucleation score at or above -0.2?
output: no (0)

====

Assay: amyloid nucleation score (Sup35N fusion, yeast selection) (log enrichment); library NNK3; higher = more nucleation; inactive = no reads after selection
MEASURED PARAMETER: amyloid nucleation score

Here's what some known entries look like.
# SUBSTANCE, amyloid nucleation score
rows = [
    ("CANANVP", "inactive"),
    ("VRFLGFHKCVILAIDYDQFL", 1.67),
    ("ILSTIVMFLVPSYHLFWLWA", "inactive"),
    ("GTIYMFENGSSVS", "inactive"),
    ("RFLFSCCVGL", 2.3),
    ("SVIASRSLIYD", "inactive"),
    ("LAKHSFSFGVYCNSRNSVMY", "inactive"),
    ("VFNGFVLKVEQVSIGVC", "inactive"),
    ("WYHSQNVINCRQSVVTMKHN", "inactive"),
    ("SFSCVHDDCRKLLQLRLDST", "inactive"),
]

input: Name the recorded amyloid nucleation score for "NKCSVMCHLDGVTWVPERAV" .
output: inactive

input: Name the recorded amyloid nucleation score for "LSMSYLMSVLLCDLQKVYNT" .
output: inactive

input: Name the recorded amyloid nucleation score for "VMGVPST" .
output: inactive

input: Name the recorded amyloid nucleation score for "CVSDNSS" .
output: -0.003

input: Name the recorded amyloid nucleation score for "PNNSIHQIICYIWNEYTWSC" .
output: 2.55

input: Name the recorded amyloid nucleation score for "KFYAYSEDMVSQYI" .
output: inactive

====

Test: amyloid nucleation score (Sup35N fusion, yeast selection) (log enrichment); library NNK2; higher = more nucleation; inactive = no reads after selection
amyloid nucleation score vs -0.4: at or above is Y, below is N.

input: Hi team, for "DFRKNANRLLRIYGVMRECA" , is the recorded amyloid nucleation score at or above -0.4?
output: Y

input: Hi team, for "NTLTTFVIGGCCLRFEASYM" , is the recorded amyloid nucleation score at or above -0.4?
output: Y

input: Hi team, for "FLSSSGRFSIVYSLFYEWIP" , is the recorded amyloid nucleation score at or above -0.4?
output: N

input: Hi team, for "GDKVACKEIWTVNVYVNTLG" , is the recorded amyloid nucleation score at or above -0.4?
output: Y

input: Hi team, for "SREGLCCNIVYA" , is the recorded amyloid nucleation score at or above -0.4?
output: N

input: Hi team, for "YLIDFRTRWIRISKA" , is the recorded amyloid nucleation score at or above -0.4?
output: N

input: Hi team, for "KFFMDYNGILDFWFRTREKD" , is the recorded amyloid nucleation score at or above -0.4?
output: Y

input: Hi team, for "FGTYSI" , is the recorded amyloid nucleation score at or above -0.4?
output: Y

input: Hi team, for "RLSVTLL" , is the recorded amyloid nucleation score at or above -0.4?
output: Y

input: Hi team, for "ICSKRIFFSA" , is the recorded amyloid nucleation score at or above -0.4?
output: N

input: Hi team, for "CLISRLIVL" , is the recorded amyloid nucleation score at or above -0.4?
output: Y

input: Hi team, for "HNPSIAARCGGICYDNITVW" , is the recorded amyloid nucleation score at or above -0.4?
output: Y

input: Hi team, for "RGDHLGCSII" , is the recorded amyloid nucleation score at or above -0.4?
output: Y

====

Test: amyloid nucleation score (Sup35N fusion, yeast selection) (log enrichment); library NNK3; higher = more nucleation; inactive = no reads after selection
MEASURED PARAMETER: amyloid nucleation score

Here's what some known entries look like.
# SUBSTANCE, RESULT
records = [
    ("FMYDYLAHLPGDFVNNSCRR", "inactive"),
    ("VWNVQSFQ", "inactive"),
    ("QVNFGRGQRTLVWTGIRCSH", "inactive"),
    ("WTKSFSSNSTQVSQYYSFNL", "inactive"),
    ("RKYSVG", "inactive"),
    ("YNEHLQLAVWRYALTVGKVW", "inactive"),
    ("GVVYWVIRKTIEGSLQFASI", "inactive"),
    ("LRPNLQSDVPRRYTMCGTHA", "inactive"),
    ("RLGMWVFWCRL", "inactive"),
    ("VSVIWSMMCIRIITISCGRV", "inactive"),
]

input: Name the recorded amyloid nucleation score for "YAATRW" .
output: inactive

input: Name the recorded amyloid nucleation score for "VSRGDTINIISSVDCVKTYF" .
output: inactive

input: Name the recorded amyloid nucleation score for "WGGSVRYKVSRICLGQCERE" .
output: inactive

input: Name the recorded amyloid nucleation score for "VIFKKGLRLFTSSCDWSISD" .
output: inactive

input: Name the recorded amyloid nucleation score for "KSCWLSYGFQLFIGVMNMH" .
output: 1.29

====

Experiment: amyloid nucleation score (Sup35N fusion, yeast selection) (log enrichment); library NNK2; higher = more nucleation; inactive = no reads after selection
MEASURED PARAMETER: amyloid nucleation score

Here's what some known entries look like.
# SUBSTANCE, amyloid nucleation score
records = [
    ("WCLLAIFSYCNDPLVLIARR", 2.26),
    ("SCRVME", 0.292),
    ("CRRVIAESFYDTSLSCSAVG", 0.877),
    ("ATFFILRTYGVWVTSIKRRS", 0.157),
    ("KYSIGTETVHGCLQPLCPAH", -0.095),
    ("YFGFGKSGDYHHSWKRWLPR", -0.511),
    ("LQRSHSWTQLPLCTSRLRLL", 0.294),
    ("CTSDVGGSQERVGSIQANSN", 2.48),
    ("VFYTFMTSALGIRVTRSSCL", 1.12),
    ("MFLKVSLVGNMVSEKPGRSS", 3.21),
]

Kindly consider the entry below.
input: Name the recorded amyloid nucleation score for "LLMLVSFLIDDEAFSVFDLL" .
output: 0.672

====

Assay: amyloid nucleation score (Sup35N fusion, yeast selection) (log enrichment); library NNK3; higher = more nucleation; inactive = no reads after selection
MEASURED PARAMETER: amyloid nucleation score

Here's what some known entries look like.
# RESIDUE STRING, amyloid nucleation score
measured = [
    ("YINLVFQNCAVDGRSSKGYW", 2.67),
    ("SKPNMAELKLHFTGYPHPAK", "inactive"),
    ("DIKVMNLCLNWFFRLIHGV", "inactive"),
    ("SHPASVFGGKRMGCCSRPKG", -0.304),
    ("FCTFSLRHYVTKNGPVCPTK", "inactive"),
    ("SIGCIHARCAYEEFDMVVIC", "inactive"),
    ("WWSKRLKRLVNCGLR", "inactive"),
]

input: Name the recorded amyloid nucleation score for "IIGKRTSMVAITLFDINGSS" .
output: inactive
